# SUBJECT_OF_TEST: HIV-1 Env of isolate MGRM-G-006 (subtype G), on pseudovirus (HIV-1)
# ASSAY_REMARKS: cell-based or functional assay
Reported IC50 (µg/mL), neutralization of pseudovirus values for the following binders.

Completed entries (count: 2):
1. PGT-125 (antibody, V domains shown) VH: QSQLQESGPRLVEASETLSLTCNVSGESTGACTYFWGWVRQAPGKGLEWIGSLSHCQSFWGSGWTFHNPSLKSRLTISLDTPKNQVFLKLTSLTAADTATYYCARFDGEVLVYNHWPKPAWVDLWGRGIPVTVSS VL: QSALTQPPSASGSPGQSITISCNGTATNFVSWYQQFPDKAPKLIIFGVDKRPPGVPDRFSGSRSGTTASLTVSRLQTDDEAVYYCGSLVGNWDVIFGGGTTLTVL ... > 50 µg/mL
2. PGT-126 (antibody, V domains shown) VH: QPQLQESGPGLVEASETLSLTCTVSGDSTAACDYFWGWVRQPPGKGLEWIGGLSHCAGYYNTGWTYHNPSLKSRLTISLDTPKNQVFLKLNSVTAADTAIYYCARFDGEVLVYHDWPKPAWVDLWGRGTLVTVSS VL: QSALTQPPSASGSPGQSISISCTGTSNRFVSWYQQHPGKAPKLVIYGVNKRPSGVPDRFSGSKSGNTASLTVSGLQTDDEAVYYCSSLVGNWDVIFGGGTKLTVL ... > 50 µg/mL

Continue with the binder presented below.
Input PGT-137 (antibody, V domains shown) VH: EVHLEESGPGLVRPSETLSLTCTASGGSIRGGEWGDSDYHWGWVRHSPEKGLEWIGSIHWRGTTHYNAPFRGRGRLSIDLSRNQFSLRLTSVTAEDTAVYYCVKHKYHDIVMVVPIAGWFDPWGQGLQVTVSS VL: EIMMTQSPAILSVSPGDRATLSCRASQSVKNNLAWYQKRPGQAPRLLIFDTSSRASGIPARFSGGGSGTEFTLTVNSMQSEDFATYYCQQYEEWPRTFGQGTKVEIK , output reported IC50 (µg/mL), neutralization of pseudovirus. > 50 µg/mL
